The measurements presented in this section are drawn from paper PMC5540273.

test system: MERTK; conditions: concentration: 1 μM, replicates: in singlicate; n = 1;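 note: KINOMEscan kinase panel screen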
Endpoint Name: %Inh (%)
Value expressed in %; do not type the unit.

Below, each entry is followed by its recorded %Inh result.
> print(dat)
                               smiles.entry  experimental.system  units.symbol  experimental.value
1  COc1cccc(C2=C(Nc3cccc(O)c3)C(=O)NC2=O)c1                MERTK             %                  18
2  CSc1ccc(NC2=C(c3ccc(Cl)cc3)C(=O)NC2=O)cc1                MERTK             %                   0
3          CNc1nccc(-c2ccc3c(N)n[nH]c3c2)n1                MERTK             %                  21
4  Fc1cc(Cl)ccc1Nc1ccnc2cc(-c3ccc(CN4CCOCC4)o3)ccc12                MERTK             %                  28
5  COc1cc(Nc2ccnc3cc(-c4ccncc4)ccc23)cc(OC)c1OC.Cl                MERTK             %                  13

Value of %Inh reported for the compound "CC(C)(C)c1ccc(C(=O)Nc2cn3cc(-n4ccnc4)ccc3n2)cc1" is 0

----------
test system: ROCK2; settings: concentration: 1 μM, replicates: in singlicate; n = 1
Endpoint Name: %Inh (%)
Value expressed in %; do not type the unit.

Below, each entry is followed by its recorded %Inh result.
> print(dat)
                                   compound  experimental.system  experimental.value
1  COc1cccc(NC(=O)NCCNc2ccnc(Nc3ccc(F)cc3)n2)c1                ROCK2                  15
2  Cc1ccc(-c2ccc3occ(-c4ccc(S(C)=O)cc4)c3c2)nn1 (stereo not drawn)                ROCK2                   0
3  Cl.O=C(Nc1ccc(Oc2ccc3[nH]c(NC(=O)c4ccco4)nc3c2)cc1)Nc1cc(C(F)(F)F)ccc1F                ROCK2                  23

Value of %Inh reported for the compound "CS(=O)(=O)c1cccc(CNc2nc(Nc3ccc4c(c3)CCC(=O)N4)ncc2C(F)(F)F)c1" is 0

Value of %Inh reported for the compound "COc1ccc(C)c(Nc2ccnc(Nc3ccc(-c4cnc[nH]4)cc3)n2)c1.Cl" is 0

Value of %Inh reported for the compound "CN(C)CCNS(=O)(=O)c1ccc(-c2ccnc3[nH]ccc23)cc1" is 98.3

Value of %Inh reported for the compound "CN(C)c1ncnc2nc[nH]c12" is 31

Value of %Inh reported for the compound "Cc1ccc(NC(=O)c2cccc(N3CCCCC3)c2)cc1-c1ccc(C(=O)NCC2CC2)cc1" is 0

Value of %Inh reported for the compound "O=C(Nc1n[nH]c2cc(-c3cccs3)ccc12)C1CC1" is 32

Value of %Inh reported for the compound "CCn1cnc2c(NCc3ccccc3)ncnc21" is 16

Value of %Inh reported for the compound "Cc1ccc(NC(=O)c2ccnc(N3CCCCC3)c2)cc1-c1ccc(C(=O)NCC2CC2)cc1" is 7

Value of %Inh reported for the compound "Cc1ccc(O)cc1Nc1ccnc2ccc(C(C)(C)C)cc12" is 39

Value of %Inh reported for the compound "Nc1ncc(-c2cn[nH]c2)c2scc(-c3ccc4c(c3)CCN4C(=O)Cc3ccccc3)c12" is 36

Value of %Inh reported for the compound "O=C(Nc1n[nH]c2nc(-c3cccc(O)c3)ccc12)C1CC1" is 0

Value of %Inh reported for the compound "O=C(Nc1n[nH]c2nc(-c3ccccc3)ccc12)C1CC1" is 12

Value of %Inh reported for the compound "CC(C)(C)c1ccc(C(=O)Nc2cn3cc(-n4ccnc4)ccc3n2)cc1" is 0

Value of %Inh reported for the compound COc1cc(Nc2nccc(N3CCC(NC(=O)Nc4ccc5c(c4)OCO5)C3)n2)cc(OC)c1OC (stereo not drawn) is 44

Value of %Inh reported for the compound "N#CC1(c2cccc(C(=O)Nc3cccc(Oc4ccc5nc(NC(=O)C6CC6)sc5n4)c3)c2)CC1" is 0
